Where do these numbers come from? They come from patent US4725600A.

For each of the compounds below, state its change in vivo at 0.1 mg/kg.
- System: Mongrel dogs
- Assay comment: Cardiotonic activity (Test Method A): percentage of dp/dt max change in anesthetized mongrel dogs
- Type: in vivo
- Measurement conditions: Canis lupus familiaris, iv, injected into the femoral vein, read-out: dp/dt M.C. (percentage of dp/dt max changes)
Reply numerically in %, unit not repeated.

Incoming: Given the entry CCn1c(C)nc(-c2ccc(OC)c(OC)c2)cc1=Nc1c(C)cc(C)cc1C , report its measured change in vivo at 0.1 mg/kg.
Outgoing: 87

Incoming: Similarly, COc1ccc(-c2cc(=Nc3c(C)cc(C)cc3C)n(C)c(Cl)n2)cc1OC ?
Outgoing: 45

Incoming: Similarly, COc1ccc(-c2cc(=Nc3c(C)cc(C)cc3C)n(C)cn2)cc1OC ?
Outgoing: 114

Incoming: Similarly, COc1ccc(-c2cc(N(C)c3c(C)cc(C)cc3C)nc(C)n2)cc1OC ?
Outgoing: 76

Incoming: Similarly, COc1ccc(-c2cc(=Nc3c(C)cc(C)cc3C)n(C)c3nnnn23)cc1OC ?
Outgoing: 152

Incoming: Similarly, Nc1cc(-c2ccncc2)c[nH]c1=O [Amrinone, 3-Amino-5-(4-pyridyl)-2(1H)-pyridinone, reference compound] ?
Outgoing: 9

Incoming: Similarly, COc1ccc(-c2cc(=Nc3c(C)cc(C)cc3C)n(C)c(C)n2)cc1OC ?
Outgoing: 72

Incoming: Similarly, COc1ccc(-c2cc(=Nc3c(C)cc(C)cc3C)n(C)c(N(C)Cc3ccccc3)n2)cc1OC ?
Outgoing: 29

Incoming: Similarly, COc1ccc(-c2cc(=Nc3c(C)cc(C)cc3C)n(C)c3nncn23)cc1OC ?
Outgoing: 60
